target: T1, mature recombinant human GDF-15 H202D variant with an N-terminal Flag and His tag, biotinylated (human, UniProt Q99988 197-308, chemically biotinylated with EZ link Sulfo-NHS-LC-Biotin, sites not stated)
T1 construct: also called Human H202D; not shown: N-terminal Flag and His tags
T1 chain: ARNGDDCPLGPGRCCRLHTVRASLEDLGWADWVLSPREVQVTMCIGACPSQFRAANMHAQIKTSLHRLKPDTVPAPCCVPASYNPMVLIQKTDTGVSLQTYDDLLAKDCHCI
method description: SPR Biacore 8K, 25 C, biotinylated GDF-15 on streptavidin C1 chip, Fab as analyte
pKd: −log10 of the molar value.

{"binder": "AB1170243 Fab (Fab, V domains shown, Fab of the humanized antibody, expressed as in Spooner et al. 2015) VH: QVQLVQSGSELKKPGASVKVSCKASGYTFTDYNMDWIRQSPGKGLEWIGDINPNNGGTFYNQKFKDRATLTVDKSTSTAYMELRSLRSDDTAVYYCAREEKLYFGLMDYWGQGTTVTVSS VL: DIQMTQSPSSLSASVGDRVTITCRASENIYSYLAWYQQKPGKAPKLLVYNAKTLAEGVPSRFSGSGSGIDFTLTISSLQPEDFATYYCQHQYGSPPTFGQGTKLEIK", "pKd": 10.05}
{"binder": "AB1170242 Fab (Fab, V domains shown, Fab of the humanized antibody, expressed as in Spooner et al. 2015) VH: QVQLQESGPGLLKPSQTLSLTCTVSGFSLSTYGMGVGWIRQPAGKGLEWLANIWWNDDKYYNSALKSRLTISKDTSKNQVSLKLSSVTAADTAVYYCAQEVYGWFAYWGQGTLVTVSS VL: DIQMTQSPSTLSASVGDRVTITCKASQNVGTNVAWYQQKPGQPPKALIYSASYRYSGVPDRFSGSGSGTDFTLTISSLQAEDVAVYYCQQYNSYPLTFGQGTKLEIK", "pKd": 8.50}
{"binder": "AB1170244 Fab (Fab, V domains shown, Fab of the humanized antibody, expressed as in Spooner et al. 2015) VH: EVQLVESGGGLVKPGGSLRLSCAASGFTFSSYAMSWVRQAPGKGLEWVAYISSGGDNIYYADTVKGRFTISRDNSKNTLYLQMNSLKTEDTAVYYCTRALVENAYFDYWGQGTTVTVSS VL: DSVLTQSPDSLAVSLGERATINCRASKSVSTSTYSYMHWYQQKPGQPPKLLIKYASYLESGVPDRFSGSGSGTDFTLKISRVEAEDVGVYYCQHSREFPWTFGGGTKVEIK", "pKd": 8.62}
{"binder": "AB1170247 Fab (Fab, V domains shown, Fab of the humanized antibody, expressed as in Spooner et al. 2015) VH: QVQLVQSGSELKKPGASVKVSCKASGYTFTSYDINWVRQAPGQGLEWIGWIYPRDGISKYNEKFKGRATLTVDTSASTAYMELSSLRSEDTAVYYCAGTYDPAYFDYWGQGTTVTVSS VL: EIVLTQSPATLSVSPGERATLSCRASQSISYYLHWYQQKPGQAPRLLIKYASQSISGVPDRFSGSGSGTDFTLKISRVEAEDFGVYYCQQSNSWPYTFGGGTKVEIK", "pKd": 8.02}
{"binder": "AB1170249 Fab (Fab, V domains shown, Fab of the humanized antibody, expressed as in Spooner et al. 2015) VH: QVQLQESGPGLLKPSQTLSLTCTVSGFSLSTYGMGVGWIRQPLGKGLEWLANIWWNDDKYYNSALKSRLTISKDTSKNQVSLKLSSVTAADTAVYYCAQMAYSWFAYWGQGTLVTVSS VL: DIQMTQSPSFLSASVGDRVTITCKASQNMDTNVAWYQQKPGQPPKALIYSASYRYSGVPDRFSGSGSGTDFTLTISSLQAEDVAVYYCQQYNSYPFTFGQGTKLEIK", "pKd": 8.52}

Origin of the recorded values: patent US20220281965A1
